These measurements were taken from paper PMC10269072.

Assay: Concentration of drugs in whole blood of P. falciparum 3D7^0087/N9-infected HuMice after oral dosing (LC-MS/MS, PK analysis)
Type: in vivo, mice
Settings: mouse, in vivo, po, 40 mg/kg, AUC0toTlast
metric: AUC(0-t) (ng·h/mL)
Just the number in ng·h/mL, nothing appended.

Would you kindly share the measured AUC(0-t) for `Clc1ccc2c(N3CCN(CCCN4CCN(c5ccnc6cc(Cl)ccc56)CC4)CC3)ccnc2c1` ?
70000

----------
Assay: Concentration of drugs in whole blood of P. falciparum 3D7^0087/N9-infected HuMice after oral dosing (LC-MS/MS, PK analysis)
Type: in vivo, mice
Details: mouse, in vivo, po, 100 mg/kg, Cmax
metric: Cmax (ng/mL)
Just the number in ng/mL, nothing appended.

Would you kindly share the measured Cmax for `c1cc([C@H]2CC[C@]3(CC2)OO[C@]2(O3)C3CC4CC(C3)CC2C4)ccc1OCCN1CCOCC1` ?
2200

----------
Assay: Concentration of drugs in whole blood of P. falciparum 3D7^0087/N9-infected HuMice after oral dosing (LC-MS/MS, PK analysis)
Type: in vivo, mice
Conditions: mouse, in vivo, po, 100 mg/kg, Tmax
metric: Tmax (h)
Just the number in h, nothing appended.

Would you kindly share the measured Tmax for `c1cc([C@H]2CC[C@]3(CC2)OO[C@]2(O3)C3CC4CC(C3)CC2C4)ccc1OCCN1CCOCC1` ?
2

----------
Assay: Concentration of drugs in whole blood of P. falciparum 3D7^0087/N9-infected HuMice after oral dosing (LC-MS/MS, PK analysis)
Type: in vivo, mice
Settings: mouse, in vivo, po, 75 mg/kg, Cmax
metric: Cmax (ng/mL)
Just the number in ng/mL, nothing appended.

Would you kindly share the measured Cmax for `Clc1ccc2c(N3CCN(CCCN4CCN(c5ccnc6cc(Cl)ccc56)CC4)CC3)ccnc2c1` ?
2550

----------
Assay: Concentration of drugs in whole blood of P. falciparum 3D7^0087/N9-infected HuMice after oral dosing (LC-MS/MS, PK analysis)
Type: in vivo, mice
Settings: mouse, in vivo, po, 10 mg/kg, AUC0toTlast
metric: AUC(0-t) (µg·h/mL)
Just the number in µg·h/mL, nothing appended.

Would you kindly share the measured AUC(0-t) for Clc1ccc2c(N3CCN(CCCN4CCN(c5ccnc6cc(Cl)ccc56)CC4)CC3)ccnc2c1 [piperaquine] ?
21.8

----------
Assay: Concentration of drugs in whole blood of P. falciparum 3D7^0087/N9-infected HuMice after oral dosing (LC-MS/MS, PK analysis)
Assay type: in vivo, mice
Details: mouse, in vivo, po, 25 mg/kg, AUC0toTlast
metric: AUC(0-t) (ng·h/mL)
Just the number in ng·h/mL, nothing appended.

Would you kindly share the measured AUC(0-t) for `Clc1ccc2c(N3CCN(CCCN4CCN(c5ccnc6cc(Cl)ccc56)CC4)CC3)ccnc2c1` ?
41900

----------
Assay: Concentration of drugs in whole blood of P. falciparum 3D7^0087/N9-infected HuMice after oral dosing (LC-MS/MS, PK analysis)
Type: in vivo, mice
Conditions: mouse, in vivo, po, 100 mg/kg, AUC0toTlast
metric: AUC(0-t) (ng·h/mL)
Just the number in ng·h/mL, nothing appended.

Would you kindly share the measured AUC(0-t) for c1cc([C@H]2CC[C@]3(CC2)OO[C@]2(O3)C3CC4CC(C3)CC2C4)ccc1OCCN1CCOCC1 [artefenomel] ?
40900

----------
Assay: Concentration of drugs in whole blood of P. falciparum 3D7^0087/N9-infected HuMice after oral dosing (LC-MS/MS, PK analysis)
Format: in vivo, mice
Conditions: mouse, in vivo, po, 75 mg/kg, AUC0toTlast
metric: AUC(0-t) (µg·h/mL)
Just the number in µg·h/mL, nothing appended.

Would you kindly share the measured AUC(0-t) for `Clc1ccc2c(N3CCN(CCCN4CCN(c5ccnc6cc(Cl)ccc56)CC4)CC3)ccnc2c1` ?
355

----------
Experiment: Concentration of drugs in whole blood of P. falciparum 3D7^0087/N9-infected HuMice after oral dosing (LC-MS/MS, PK analysis)
Type: in vivo, mice
Settings: mouse, in vivo, po, 40 mg/kg, Cmax
metric: Cmax (ng/mL)
Just the number in ng/mL, nothing appended.

Would you kindly share the measured Cmax for `Clc1ccc2c(N3CCN(CCCN4CCN(c5ccnc6cc(Cl)ccc56)CC4)CC3)ccnc2c1` ?
1120
